Assay: Residual plasma concentration of kinase inhibitors by UPLC-MS/MS in NSCLC patients, classed optimal or suboptimal
Conditions: human, in vivo
readout-name: Samples with suboptimal concentration

compound: COc1cc2ncnc(Nc3ccc(F)c(Cl)c3)c2cc1OCCCN1CCOCC1
meas-value: 3 (11.5%) No. (%)
//
compound: C#Cc1cccc(Nc2ncnc3cc(OCCOC)c(OCCOC)cc23)c1
meas-value: 6 (23%) No. (%)
//
compound: C=CC(=O)Nc1cc(Nc2nccc(-c3cn(C)c4ccccc34)n2)c(OC)cc1N(C)CCN(C)C
meas-value: 6 (23%) No. (%)

Now turn to the next compound.
QUERY: # lookup: Samples with suboptimal concentration of `CC(=O)Nc1cccc(-n2c(=O)n(C3CC3)c(=O)c3c(Nc4ccc(I)cc4F)n(C)c(=O)c(C)c32)c1`
RESULT: 3 (11.5%) No. (%)
